# Assayed target: USP28 (His-tagged USP28-FL-mammalian) (Homo sapiens, UniProt Q96RU2)
# Construct: Expression of USP28 (1-1077)-TEV-6*His (pTT5 vector); made in house; host or cells: Expi293f cells (pTT5 vector)
# Sequence (Q96RU2 whole entry): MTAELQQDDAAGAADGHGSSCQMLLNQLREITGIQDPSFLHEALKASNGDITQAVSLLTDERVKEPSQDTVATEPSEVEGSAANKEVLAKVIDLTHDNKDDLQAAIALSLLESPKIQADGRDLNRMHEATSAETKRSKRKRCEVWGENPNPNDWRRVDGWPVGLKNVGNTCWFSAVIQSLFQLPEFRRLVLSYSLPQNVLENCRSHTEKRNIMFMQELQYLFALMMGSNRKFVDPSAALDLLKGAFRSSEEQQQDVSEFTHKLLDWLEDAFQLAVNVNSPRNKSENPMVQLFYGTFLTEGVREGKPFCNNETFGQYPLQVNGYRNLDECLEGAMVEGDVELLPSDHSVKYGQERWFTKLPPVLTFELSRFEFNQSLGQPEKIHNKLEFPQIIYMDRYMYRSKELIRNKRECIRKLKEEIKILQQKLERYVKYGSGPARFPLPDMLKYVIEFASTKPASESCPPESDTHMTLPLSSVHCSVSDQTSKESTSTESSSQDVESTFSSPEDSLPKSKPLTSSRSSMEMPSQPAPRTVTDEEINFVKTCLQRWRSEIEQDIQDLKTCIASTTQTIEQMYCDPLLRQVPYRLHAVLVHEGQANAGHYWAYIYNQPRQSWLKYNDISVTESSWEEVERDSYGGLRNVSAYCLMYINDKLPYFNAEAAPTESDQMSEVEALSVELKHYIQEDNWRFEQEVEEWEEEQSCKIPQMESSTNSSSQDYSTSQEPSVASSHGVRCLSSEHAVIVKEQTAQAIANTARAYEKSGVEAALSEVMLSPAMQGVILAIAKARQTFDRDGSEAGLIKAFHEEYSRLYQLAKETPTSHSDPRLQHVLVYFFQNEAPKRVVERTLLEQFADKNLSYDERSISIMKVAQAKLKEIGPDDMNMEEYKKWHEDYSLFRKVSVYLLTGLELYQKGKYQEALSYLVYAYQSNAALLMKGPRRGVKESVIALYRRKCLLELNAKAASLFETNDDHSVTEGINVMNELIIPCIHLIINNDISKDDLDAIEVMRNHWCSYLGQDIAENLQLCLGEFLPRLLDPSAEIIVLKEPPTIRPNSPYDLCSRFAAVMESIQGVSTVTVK
# Assay overview: Ubiquitin-Rhodamine 110 Assay for USP28 Activity, Example A-1(a)
# Format: biochemical
# Details: Ub-Rh110 assay, Example A-1(a); read-out: USP28 A-1(a) IC50 range
# Excerpt: Example A-1(a): Biochemical Assay: Ubiquitin-Rhodamine 110 Assay for USP28 Activity […] For assay formats Example A-1(a), A-1(b), and A-2, data were reported as percent inhibition compared with control wells based on the following equation: % inh=1−((FLU−AveLow)/(AveHigh−AveLow)) where FLU=measured Fluorescence, AveLow=average Fluorescence of no enzyme control (n=16), and AveHigh=average Fluorescence of DMSO control (n=16). […]
pIC50: −log10 of the molar value.
Measured endpoint: pIC50

                                    compound                            assayed_target  reported_measurement
 0  Cc1ccc2c(N)c(C(=O)N[C@@H]3COc4cc(N5CC6CCC(C5)N6)cc(F)c4C3)sc2n1 (single isomer, unassigned) [Example 1-30]  USP28 (His-tagged USP28-FL-mammalian) (Homo sapiens, UniProt Q96RU2)          5.70 to 6.70
 1  Cc1nc2sc(C(=O)N[C@H]3COc4cc(N5CC6CCC(C5)N6)cc(F)c4C3)c(N)c2s1 (single isomer, unassigned) [Example 1-39]  USP28 (His-tagged USP28-FL-mammalian) (Homo sapiens, UniProt Q96RU2)          7.30 to 9.00
 2  Cc1cnc2c(N)c(C(=O)N[C@H]3CCc4c(ccc(N5CCNCC5)c4C)C3)sc2n1 (single isomer, unassigned) [Example 2-36]  USP28 (His-tagged USP28-FL-mammalian) (Homo sapiens, UniProt Q96RU2)          5.70 to 6.70
 3  Cc1ccc2c(N)c(C(=O)N[C@H]3COc4cc(N5CCC[C@@](N)(C(F)(F)F)C5)ccc4C3)sc2n1 (single isomer, unassigned) [Example 3-3]  USP28 (His-tagged USP28-FL-mammalian) (Homo sapiens, UniProt Q96RU2)          7.30 to 9.00
 4  Cc1ccc2c(N)c(C(=O)N[C@H]3COc4cc(N5CC6CCCC(C5)N6)ccc4C3)sc2n1 (single isomer, unassigned) [Example 1-5]  USP28 (His-tagged USP28-FL-mammalian) (Homo sapiens, UniProt Q96RU2)          7.30 to 9.00
 5  Cc1cnc2c(N)c(C(=O)N[C@H]3COc4cc(N5CCNCC5)ccc4C3)sc2n1 (single isomer, unassigned) [Example 1-21]  USP28 (His-tagged USP28-FL-mammalian) (Homo sapiens, UniProt Q96RU2)          7.30 to 9.00
 6  Cc1ccc2c(N)c(C(=O)N[C@H]3COc4cc(N5CCN[C@@H](C)C5)ccc4C3)sc2n1 [Example 2-8]  USP28 (His-tagged USP28-FL-mammalian) (Homo sapiens, UniProt Q96RU2)          7.30 to 9.00
 7  CO[C@@H]1CN(c2ccc3c(c2)OC[C@H](NC(=O)c2sc4nc(C)ccc4c2N)C3)C[C@H]1N (single isomer, unassigned) [Example 3-2]  USP28 (His-tagged USP28-FL-mammalian) (Homo sapiens, UniProt Q96RU2)          7.30 to 9.00
 8  Cc1ccc2c(N)c(C(=O)N[C@@H]3COc4cc(N5CC6CCC(C5)N6)ccc4C3)sc2n1 (single isomer, unassigned) [Example 1-4]  USP28 (His-tagged USP28-FL-mammalian) (Homo sapiens, UniProt Q96RU2)          5.70 to 6.70
 9  Cc1nc2sc(C(=O)N[C@H]3COc4cc(N5CCNCC5)ccc4C3)c(N)c2s1 [Example 1-25]  USP28 (His-tagged USP28-FL-mammalian) (Homo sapiens, UniProt Q96RU2)          7.30 to 9.00
10  Cc1ccc2c(N)c(C(=O)N[C@H]3COc4cc(N5CC6CC(C5)N6)ccc4C3)sc2n1 [Example 2-2]  USP28 (His-tagged USP28-FL-mammalian) (Homo sapiens, UniProt Q96RU2)          7.30 to 9.00
11  CO[C@H]1CN(c2ccc3c(c2)OC[C@H](NC(=O)c2sc4nc(C)ccc4c2N)C3)C[C@@H]1N (single isomer, unassigned) [Example 3-1]  USP28 (His-tagged USP28-FL-mammalian) (Homo sapiens, UniProt Q96RU2)          7.30 to 9.00
12  Cc1ccc2c(N)c(C(=O)N[C@@H]3COc4cc(N5CCNCC5)ccc4C3)sc2n1 (single isomer, unassigned) [Example 1-2]  USP28 (His-tagged USP28-FL-mammalian) (Homo sapiens, UniProt Q96RU2)          5.70 to 6.70
13  O=C(N[C@H]1COc2cc(N3CC4CCC(C3)N4)ccc2C1)c1cnc2c(c1)C1(CCN2)CC1 [Example 2-24]  USP28 (His-tagged USP28-FL-mammalian) (Homo sapiens, UniProt Q96RU2)          6.70 to 7.30
14  Cc1ccc2c(N)c(C(=O)N[C@H]3COc4cc(N5C6CCC5CNC6)ccc4C3)sc2n1 [Example 2-6]  USP28 (His-tagged USP28-FL-mammalian) (Homo sapiens, UniProt Q96RU2)          7.30 to 9.00
15  Cc1nc2sc(C(=O)N[C@@H]3COc4cc(N5CC6CCC(C5)N6)cc(F)c4C3)c(N)c2s1 (single isomer, unassigned) [Example 1-40]  USP28 (His-tagged USP28-FL-mammalian) (Homo sapiens, UniProt Q96RU2)          5.70 to 6.70
16  CCn1ccc2cc(C(=O)N[C@H]3COc4cc(N5CC6CNCC(C5)C6(F)F)ccc4C3)cnc21 [Example 2-30]  USP28 (His-tagged USP28-FL-mammalian) (Homo sapiens, UniProt Q96RU2)          7.30 to 9.00
17  Cc1nc2sc(C(=O)N[C@H]3COc4cc(N5CCNCC5)ccc4C3)c(N)c2cc1F (single isomer, unassigned) [Example 1-15]  USP28 (His-tagged USP28-FL-mammalian) (Homo sapiens, UniProt Q96RU2)          7.30 to 9.00
18  Cc1ccc2c(N)c(C(=O)N[C@H]3COc4cc(N5CCN[C@H](C)[C@@H]5C)ccc4C3)sc2n1 (single isomer, unassigned) [Example 1-9]  USP28 (His-tagged USP28-FL-mammalian) (Homo sapiens, UniProt Q96RU2)          7.30 to 9.00
19  Cc1cnc2c(N)c(C(=O)N[C@@H]3COc4cc(N5CCNCC5)ccc4C3)sc2n1 (single isomer, unassigned) [Example 1-22]  USP28 (His-tagged USP28-FL-mammalian) (Homo sapiens, UniProt Q96RU2)          5.70 to 6.70
20  Cc1nc2sc(C(=O)N[C@@H]3COc4cc(N5CCNCC5)ccc4C3)c(N)c2cc1F (single isomer, unassigned) [Example 1-16]  USP28 (His-tagged USP28-FL-mammalian) (Homo sapiens, UniProt Q96RU2)          5.70 to 6.70
21  Cc1ccc2c(N)c(C(=O)N[C@H]3COc4cc(N5CCN[C@H](C)[C@H]5C)ccc4C3)sc2n1 (single isomer, unassigned) [Example 1-11]  USP28 (His-tagged USP28-FL-mammalian) (Homo sapiens, UniProt Q96RU2)          7.30 to 9.00
22  Cc1cnc2c(N)c(C(=O)N[C@@H]3CCc4c(ccc(N5CCNCC5)c4C)C3)sc2n1 (single isomer, unassigned) [Example 2-37]  USP28 (His-tagged USP28-FL-mammalian) (Homo sapiens, UniProt Q96RU2)          7.30 to 9.00
23  Cc1ccc2c(N)c(C(=O)N[C@H]3COc4cc(N5CC6CNCC(C5)C6(F)F)ccc4C3)sc2n1 [Example 2-1]  USP28 (His-tagged USP28-FL-mammalian) (Homo sapiens, UniProt Q96RU2)          7.30 to 9.00
24  Cc1ccc2c(N)c(C(=O)N[C@@H]3COc4cc(N5CC6CC(C5)N6)cc(F)c4C3)sc2n1 (single isomer, unassigned) [Example 1-41]  USP28 (His-tagged USP28-FL-mammalian) (Homo sapiens, UniProt Q96RU2)          7.30 to 9.00
25  Cc1nc2sc(C(=O)N[C@@H]3COc4cc(N5CC6CCC(C5)N6)ccc4C3)c(N)c2s1 [Example 1-24]  USP28 (His-tagged USP28-FL-mammalian) (Homo sapiens, UniProt Q96RU2)          5.70 to 6.70
